target: T1, DR4G115 (HLA DPB4:01, peptide LCAP) (human); assay: MSD ECL; antigen coated; protocol of Example 3;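 also: antibody binding to plate-coated soluble HLA class II antigens carrying peptides fused at the beta-chain N-terminus, detected with a SulfoTag anti-human Kappa secondary antibody for 1 hour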
T1 construct: extracellular domain
T1 sequence (P20036 29-222, chain 1 of 2): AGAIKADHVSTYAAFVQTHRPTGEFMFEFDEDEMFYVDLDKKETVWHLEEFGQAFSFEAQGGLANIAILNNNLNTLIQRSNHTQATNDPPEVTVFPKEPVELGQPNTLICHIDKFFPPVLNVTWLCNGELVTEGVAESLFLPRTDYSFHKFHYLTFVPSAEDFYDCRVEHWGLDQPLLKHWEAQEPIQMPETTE
T1 sequence (P04440 30-225, chain 2 of 2, further chain): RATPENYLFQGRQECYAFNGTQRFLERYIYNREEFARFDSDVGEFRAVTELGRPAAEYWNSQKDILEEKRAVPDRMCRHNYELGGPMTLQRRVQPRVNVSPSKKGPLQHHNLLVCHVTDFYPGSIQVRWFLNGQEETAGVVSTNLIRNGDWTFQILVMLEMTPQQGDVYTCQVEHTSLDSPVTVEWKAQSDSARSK
propertyName: ECL signal (ECL)
Quick reminder: number only, in ECL, skip the unit.

binder	scaleUnit	ECL signal
DR4B5 (antibody, V domains shown, also called apolizumab (1D10) re-engineered as IgG2sigma) VH: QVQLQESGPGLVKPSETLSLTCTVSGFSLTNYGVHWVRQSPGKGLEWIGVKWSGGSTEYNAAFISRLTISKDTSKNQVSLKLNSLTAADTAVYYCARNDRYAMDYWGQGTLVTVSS VL: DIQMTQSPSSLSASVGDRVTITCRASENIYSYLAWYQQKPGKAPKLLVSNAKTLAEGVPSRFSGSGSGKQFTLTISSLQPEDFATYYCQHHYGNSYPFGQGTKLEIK	ECL	70
DR4B127 (antibody, human IgG2, kappa, V domains shown, also called VH DR4H7 / VL PH9L3) VH: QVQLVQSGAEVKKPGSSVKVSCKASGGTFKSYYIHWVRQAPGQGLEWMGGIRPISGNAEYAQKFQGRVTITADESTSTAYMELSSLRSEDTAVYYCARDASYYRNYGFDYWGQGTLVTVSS VL: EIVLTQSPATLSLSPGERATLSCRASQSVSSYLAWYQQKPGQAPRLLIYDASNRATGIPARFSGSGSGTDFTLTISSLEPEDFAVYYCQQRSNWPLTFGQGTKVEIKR	ECL	239
DR4B98 (antibody, human IgG2, kappa, V domains shown, also called VH DR4H50 / VL PH9L3) VH: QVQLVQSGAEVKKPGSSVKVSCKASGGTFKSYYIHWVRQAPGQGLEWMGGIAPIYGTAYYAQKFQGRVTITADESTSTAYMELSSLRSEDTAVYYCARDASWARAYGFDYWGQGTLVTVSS VL: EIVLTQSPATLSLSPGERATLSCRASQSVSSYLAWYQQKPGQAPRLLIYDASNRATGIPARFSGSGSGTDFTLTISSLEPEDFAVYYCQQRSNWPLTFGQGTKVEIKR	ECL	198

As a next step, examine the binder that follows.
stdin: What does the record list as ECL signal for DR4B6 (antibody, V domains shown, also called L243 re-engineered as IgG2sigma) VH: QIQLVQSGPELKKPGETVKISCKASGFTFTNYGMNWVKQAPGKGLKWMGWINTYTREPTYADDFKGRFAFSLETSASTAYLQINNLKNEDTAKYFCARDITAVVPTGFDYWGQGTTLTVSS VL: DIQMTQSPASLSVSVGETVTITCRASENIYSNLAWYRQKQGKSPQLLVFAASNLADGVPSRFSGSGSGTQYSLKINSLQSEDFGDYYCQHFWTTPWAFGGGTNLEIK ?
stdout: 67
